Attribution: the supplement of paper PMC3334620

Recorded measurements of PBM E-score, one per entry
Target: Vhr1 (UniProt P40522)
Sequence: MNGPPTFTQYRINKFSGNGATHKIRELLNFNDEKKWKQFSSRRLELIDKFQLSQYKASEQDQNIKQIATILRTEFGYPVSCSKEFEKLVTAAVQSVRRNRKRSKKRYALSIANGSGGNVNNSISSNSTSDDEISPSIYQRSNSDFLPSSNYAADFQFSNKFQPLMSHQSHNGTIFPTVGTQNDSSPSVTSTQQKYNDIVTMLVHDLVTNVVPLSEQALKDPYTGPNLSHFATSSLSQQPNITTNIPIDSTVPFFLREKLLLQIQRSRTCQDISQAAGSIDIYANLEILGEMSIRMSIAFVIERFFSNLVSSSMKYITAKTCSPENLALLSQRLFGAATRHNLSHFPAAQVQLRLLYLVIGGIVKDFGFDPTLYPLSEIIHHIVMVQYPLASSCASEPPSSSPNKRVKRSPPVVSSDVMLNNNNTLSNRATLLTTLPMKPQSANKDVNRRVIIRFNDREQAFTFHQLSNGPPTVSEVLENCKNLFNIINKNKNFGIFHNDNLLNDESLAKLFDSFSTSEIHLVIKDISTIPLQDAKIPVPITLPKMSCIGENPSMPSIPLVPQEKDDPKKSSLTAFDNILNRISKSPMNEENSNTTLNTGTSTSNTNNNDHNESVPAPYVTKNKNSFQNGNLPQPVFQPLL
Assay: PBM E-score (8-mer binding enrichment) (E-score (-0.5 to 0.5)); higher = stronger / more preferred TF binding
Conditions: protein concentration: 200 nM; construct: GST-full length
The full ranking holds about 33,000 sequences; the median of “E-score (-0.5 to 0.5)” is about -0.012, and the highest 2% start at about 0.27. Many of the other results were omitted from the sample, so the highest values are more common in it than they were.
valueKind: PBM E-score

    sequencerecord  reported
 0        GCGCCCCA    -0.131
 1        GAGGTATA     0.113
 2        CCTCCCCC     -0.19
 3        AGAAAATG    -0.163
 4        CCTTGACC    -0.111
 5        ACCATAGG    0.0531
 6        GGCTGCCA     0.181
 7        CGAGTCAC     0.467
 8        TAAAGCAA   -0.0681
 9        CGAGTCAG     0.429
10        CGTTGCGA    0.0286
11        CCCAATAG   -0.0738
12        GCGACTCA     0.477
13        GCACAAGC    0.0452
14        CCGCCCCG     0.365
15        AGTCGGTG     0.246
16        CACGCAGG   -0.0242
17        ACGACTAT     0.195
18        CGAGTCTA   -0.0817
19        GAAATTTA    -0.157
20        AGCGCACA   0.00461
21        CCGCCCCA     0.349
22        AGAATTAA    -0.301
23        ACGACGCC    -0.036
24        CAAACAGG    0.0517
25        GGAGTCTA    0.0135
26        CCGACTCC      0.45
27        CGAGTCTC    0.0296
28        CACATGAC     0.272
29        CTCATGAG    0.0895
30        GGTCTTTA   -0.0868
31        CCTCCCAA    -0.246
32        GTGACCCA     0.267
33        CCAGTCAG    0.0854
34        GATCAGGC  -0.00147
35        ACGACTCG     0.327
36        GGTCGAAC   0.00191
37        ACTGGGGA   -0.0871
38        GGAGTCAA     0.354
39        CCTCCCCA      0.28
40        AATCTAGA     -0.14
41        CCGCCCCC     -0.17
42        GCGAAACC   -0.0227
43        CTCATGAA    0.0223
44        CTGACCCA    0.0712
45        CGAGTCCC     0.186
